# Assay Explanation: recombinant UMI read abundance after kanamycin selection (control-corrected) (log10(CPM+1)); higher = more efficient recombination; extreme values may be limits of the assay; sequences stand for … in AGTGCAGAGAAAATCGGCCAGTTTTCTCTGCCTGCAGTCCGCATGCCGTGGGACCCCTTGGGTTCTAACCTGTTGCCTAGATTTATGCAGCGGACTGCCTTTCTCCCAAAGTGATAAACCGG…AGGTTGGTTTCACT; site = the 11-nt donor;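 further: IS621 bridge recombinase in Escherichia coli cells against a fixed T5 target plasmid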
Measurement Label: recombinant UMI read abundance (log10)

                              sequence_code                       measurement_label  recorded_number
0  TAGTCTTCATGGACCGGTTTTCCCGGTAATCCGTATTTGGT (site TAGACTTCTAC)  recombinant UMI read abundance (log10)            0.017
1  ACTTAGACATGGACCGGTTTTCCCGGTAATCCGTATTTGGG (site ACCTAGACTCC)  recombinant UMI read abundance (log10)          0.00452
2  CGGACTCCATGGACCGGTTTTCCCGGTAATCCGTATTTGTT (site CGGATTCCTAA)  recombinant UMI read abundance (log10)          0.00394
3  CTCTTCACATGGACCGGTTTTCCCGGTAATCCGTATTTGGC (site CTCTTCACTGC)  recombinant UMI read abundance (log10)             2.73
4  TACAAGGCATGGACCGGTTTTCCCGGTAATCCGTATTTGGT (site TACAAGGCTAC)  recombinant UMI read abundance (log10)            0.732

====

# Assay Explanation: recombinant UMI read abundance after kanamycin selection (control-corrected) (log10(CPM+1)); higher = more efficient recombination; extreme values may be limits of the assay; sequences stand for … in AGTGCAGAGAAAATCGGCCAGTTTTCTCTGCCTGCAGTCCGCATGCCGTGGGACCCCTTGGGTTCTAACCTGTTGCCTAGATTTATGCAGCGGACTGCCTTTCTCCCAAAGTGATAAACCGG…AGGTTGGTTTCACT; site = the 11-nt donor
# binning rule on recombinant UMI read abundance (log10): band 1 (below 0.01), band 2 (0.01 to below 1), band 3 (1 or more)

>>> df
                               sequence_code  answer_label
 0  CTGCTAACATGGACCGGTTTTCCCGGTAATCCGTATTTGGA (site CTTCTAACTTC)        band 2
 1  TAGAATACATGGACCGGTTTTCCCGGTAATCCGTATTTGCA (site TAGAAGACTTG)        band 1
 2  GCCCACGCATGGACCGGTTTTCCCGGTAATCCGTATTTGGA (site GCCCACGCTTC)        band 2
 3  ATAGAGACATGGACCGGTTTTCCCGGTAATCCGTATTTGGT (site ATCGAGACTAC)        band 2
 4  ATCGCTGCATGGACCGGTTTTCCCGGTAATCCGTATTTGCC (site ATCGCTGCTGG)        band 3
 5  CAAGCCGCATGGACCGGTTTTCCCGGTAATCCGTATTTGCT (site CAAGCAGCTAG)        band 3
 6  GCTAGCCCATGGACCGGTTTTCCCGGTAATCCGTATTTGAT (site GCTAGCCCTAT)        band 2
 7  AAGAACGCATGGACCGGTTTTCCCGGTAATCCGTATTTGGG (site AAGGACGCTCC)        band 2
 8  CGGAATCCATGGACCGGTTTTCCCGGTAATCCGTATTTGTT (site CGGAACCCTCA)        band 2
 9  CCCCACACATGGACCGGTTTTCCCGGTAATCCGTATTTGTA (site CCCCCCACTTA)        band 2
10  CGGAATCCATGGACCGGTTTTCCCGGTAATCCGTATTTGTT (site CAGAATCCTGA)        band 1
11  CCCATATCATGGACCGGTTTTCCCGGTAATCCGTATTTGTG (site CCCATATCTAA)        band 1
12  AGTTGATCATGGACCGGTTTTCCCGGTAATCCGTATTTGAC (site AGTTGATCTGT)        band 3
13  CCCATGTCATGGACCGGTTTTCCCGGTAATCCGTATTTGTC (site CCCATTTCTGA)        band 1
14  GATCCGTCATGGACCGGTTTTCCCGGTAATCCGTATTTGTA (site GATCCGTCTTA)        band 3
15  GAAGCGTCATGGACCGGTTTTCCCGGTAATCCGTATTTGTA (site GAAGCGTCTTA)        band 3
16  TTAGTATCATGGACCGGTTTTCCCGGTAATCCGTATTTGTC (site TTAGTATCTGA)        band 3
17  TCCTATTCATGGACCGGTTTTCCCGGTAATCCGTATTTGCC (site TCCAATTCTGG)        band 1

====

# Assay Explanation: recombinant UMI read abundance after kanamycin selection (control-corrected) (log10(CPM+1)); higher = more efficient recombination; extreme values may be limits of the assay; sequences stand for … in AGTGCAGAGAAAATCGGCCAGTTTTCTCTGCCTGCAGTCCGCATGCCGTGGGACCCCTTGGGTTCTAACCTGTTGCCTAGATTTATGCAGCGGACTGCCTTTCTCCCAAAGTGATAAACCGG…AGGTTGGTTTCACT; site = the 11-nt donor
Parameter threshold = 0.5. Response is satisfied when recombinant UMI read abundance (log10) meets or exceeds it, else not satisfied.

In [3]: df
Out[3]:
                               sequence_code   answer_label
 0  TAGGCTGCATGGACCGGTTTTCCCGGTAATCCGTATTTGGT (site TAGGCTGCTAC)      satisfied
 1  CGTTAGACATGGACCGGTTTTCCCGGTAATCCGTATTTGTG (site CGTTAGACTCG)  not satisfied
 2  ACCACCGCATGGACCGGTTTTCCCGGTAATCCGTATTTGCG (site GCCACCGCTCG)  not satisfied
 3  AATGGGTCATGGACCGGTTTTCCCGGTAATCCGTATTTGAC (site AATGTGTCTGT)  not satisfied
 4  GCCTAATCATGGACCGGTTTTCCCGGTAATCCGTATTTGGC (site GCCTAATCTGC)      satisfied
 5  GGGAAGACATGGACCGGTTTTCCCGGTAATCCGTATTTGCA (site TGGAAGACTTG)      satisfied
 6  CAACGCACATGGACCGGTTTTCCCGGTAATCCGTATTTGTT (site CAACGCACTAA)      satisfied
 7  GCGAGGCCATGGACCGGTTTTCCCGGTAATCCGTATTTGGG (site GCGACGCCTCC)  not satisfied
 8  TGGTCCTCATGGACCGGTTTTCCCGGTAATCCGTATTTGTC (site TGGTCCTCTGA)      satisfied
 9  CGCCCGACATGGACCGGTTTTCCCGGTAATCCGTATTTGCC (site CGCCCGACTGG)      satisfied
10  TAGACTTCATGGACCGGTTTTCCCGGTAATCCGTATTTGGT (site TAGACTTCTAC)      satisfied
11  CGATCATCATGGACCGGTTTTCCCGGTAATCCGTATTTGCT (site CGATTATCTAA)  not satisfied
12  TAATGAGCATGGACCGGTTTTCCCGGTAATCCGTATTTGAG (site TAATGAGCTCT)      satisfied
13  AAAGCGCCATGGACCGGTTTTCCCGGTAATCCGTATTTGTG (site GAAGCGCCTCA)  not satisfied
14  CCCATATCATGGACCGGTTTTCCCGGTAATCCGTATTTGTG (site CCCATATCTGA)  not satisfied
15  GCTCTCGCATGGACCGGTTTTCCCGGTAATCCGTATTTGTT (site GCTCTCGCTAA)      satisfied
16  CCAGGACCATGGACCGGTTTTCCCGGTAATCCGTATTTGGG (site CAAGGACCTCC)  not satisfied
17  TGGCTCACATGGACCGGTTTTCCCGGTAATCCGTATTTGTG (site TGGCTCACTCA)  not satisfied
18  AGGGACACATGGACCGGTTTTCCCGGTAATCCGTATTTGGC (site AGGGACACTGC)      satisfied
19  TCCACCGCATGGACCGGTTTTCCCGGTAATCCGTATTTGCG (site TCCACGGCTCG)  not satisfied
20  TAAGAGACATGGACCGGTTTTCCCGGTAATCCGTATTTGCG (site TCAGAGACTCG)      satisfied
21  TCCACCTCATGGACCGGTTTTCCCGGTAATCCGTATTTGCG (site TCCACCACTCG)  not satisfied
22  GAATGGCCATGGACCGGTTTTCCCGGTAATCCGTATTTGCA (site GAATGGCCTTA)  not satisfied
23  CTTCAGTCATGGACCGGTTTTCCCGGTAATCCGTATTTGGC (site CTTCAGTCTGC)  not satisfied
24  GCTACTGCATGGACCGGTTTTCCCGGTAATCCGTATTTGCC (site TCTACTGCTGG)  not satisfied
25  TCGACCTCATGGACCGGTTTTCCCGGTAATCCGTATTTGGA (site TCGACCTCTTC)      satisfied
26  ACTTTACCATGGACCGGTTTTCCCGGTAATCCGTATTTGCT (site ACTTTACCTAG)  not satisfied
27  GTCAATCCATGGACCGGTTTTCCCGGTAATCCGTATTTGAA (site GACAATCCTTT)  not satisfied
28  CGCCGTACATGGACCGGTTTTCCCGGTAATCCGTATTTGTT (site CGCCGTACTAT)  not satisfied
29  GTTCGAGCATGGACCGGTTTTCCCGGTAATCCGTATTTGCT (site GTTCGAGCTAG)      satisfied
30  TCATCAACATGGACCGGTTTTCCCGGTAATCCGTATTTGGT (site TCATCAACTAC)  not satisfied
31  GTGATGTCATGGACCGGTTTTCCCGGTAATCCGTATTTGGA (site GTGATGTCTTC)      satisfied
32  ACTATTGCATGGACCGGTTTTCCCGGTAATCCGTATTTGGT (site ACTATTGCTAC)      satisfied
33  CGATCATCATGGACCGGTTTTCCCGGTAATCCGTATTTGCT (site CGATCACCTAG)  not satisfied
34  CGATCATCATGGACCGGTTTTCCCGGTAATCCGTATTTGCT (site CGTTCATCTAG)      satisfied
35  GCGAAAACATGGACCGGTTTTCCCGGTAATCCGTATTTGCA (site GCGAAAACTTG)      satisfied

These measurements were taken from the supplement of paper PMC11208160.
